This collection of values is drawn from patent US7060449.

- TEST SYSTEM: T1, rat GALR2 (rat)
- T1 chain: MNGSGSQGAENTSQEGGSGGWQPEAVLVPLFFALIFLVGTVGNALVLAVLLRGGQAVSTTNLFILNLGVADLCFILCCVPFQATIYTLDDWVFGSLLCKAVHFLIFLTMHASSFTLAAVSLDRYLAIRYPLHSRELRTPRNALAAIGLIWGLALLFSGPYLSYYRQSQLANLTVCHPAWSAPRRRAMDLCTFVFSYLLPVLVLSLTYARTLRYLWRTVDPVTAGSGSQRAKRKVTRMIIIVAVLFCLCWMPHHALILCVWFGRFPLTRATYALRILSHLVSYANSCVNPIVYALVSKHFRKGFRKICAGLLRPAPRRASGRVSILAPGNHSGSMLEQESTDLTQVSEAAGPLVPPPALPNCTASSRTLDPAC
- TEST PROTOCOL: radioligand
- MEASUREMENT PARAMETERS: modification not given
OUTCOME MEASURE: pKd
By convention, pKd is the negative base-10 log of a molar concentration.

Q. What does the data say about its pKd? Entry: GWTLNSAGYLLGPHAIDNHRSFHDKYGLA [[125I]porcine galanin, P07480]
A. 9.70
